test: Pharmacokinetic studies in mice (IV and PO); format: in vivo; conditions: mouse, plasma, IV 2 mg/kg, read-out: MRT0-last
Recorded metric: MRT last (h)
Express your answer in h, writing the number without its unit.

Ask | Data request, read-out MRT last, for CO[C@H]1C2=CC(C2)[C@H](C)[C@@H](C)S(=O)(=O)NC(=O)c2ccc3c(c2)N(C[C@@H]2CC[C@H]21)C[C@@]1(CCCc2cc(Cl)cc(F)c21)CO3 (single isomer, unassigned) [20 (isomer 1)]
Reply | 2.4

Ask | Data request, read-out MRT last, for CO[C@H]1C2=CC(C2)[C@H](C)[C@@H](C)S(=O)(=O)NC(=O)c2ccc3c(c2)N(C[C@@H]2CC[C@H]21)C[C@@]1(CCCc2cc(Cl)c(F)cc21)CO3 (single isomer, unassigned) [Cpd. No. 21 (isomer 1)]
Reply | 2.7

Ask | Data request, read-out MRT last, for CO[C@H]1/C=C/C[C@H](C)[C@@H](C)S(=O)(=O)NC(=O)c2ccc3c(c2)N(C[C@@H]2CC[C@H]21)C[C@@]1(CCCc2cc(Cl)ccc21)CO3 [AMG-176, reference compound]
Reply | 6.3

Ask | Data request, read-out MRT last, for CO[C@H]1C2=C[C@@H](C2)[C@H](C)[C@@H](C)S(=O)(=O)NC(=O)c2ccc3c(c2)N(C[C@@H]2CC[C@H]21)C[C@@]1(CCCc2c1ccc(Cl)c2F)CO3 (single isomer, unassigned) [Cpd. No. 17 (isomer 1)]
Reply | 6.7

----------
tested on: NCI-H929 cells; experiment: Cell viability assay (NCI-H929 cells), CCK-8; assay type: cell-based; settings: Homo sapiens, NCI-H929, 24 h, 5% FBS
pIC50: −log10 of the molar value.
Classes based on pIC50: b0 = under 7, b1 = from 7 up to 8, b2 = 8 and over

Ask | Input COCCO[C@H]1C2=CC(C2)[C@H](C)[C@@H](C)S(=O)(=O)NC(=O)c2ccc3c(c2)N(C[C@@H]2CC[C@H]21)C[C@@]1(CCCc2cc(Cl)ccc21)CO3 (mixture of isomers) [16 (mixture)] ; output its category
Reply | b1

Ask | Input C[C@@H]1[C@@H](C)S(=O)(=O)NC(=O)c2ccc3c(c2)N(C[C@@H]2CC[C@H]2[C@@H](OCC(=O)O)C2=C[C@H]1C2)C[C@@]1(CCCc2c1ccc(Cl)c2F)CO3 ; output its category
Reply | b0

Ask | Input CC(C)N1CCN(CCO[C@H]2C3=C[C@@H](C3)[C@H](C)[C@@H](C)S(=O)(=O)NC(=O)c3ccc4c(c3)N(C[C@@H]3CC[C@H]32)C[C@@]2(CCCc3c2ccc(Cl)c3F)CO4)CC1 ; output its category
Reply | b2

Ask | Input CO[C@@H]1C2=CC(C2)CC(C)S(=O)(=O)NC(=O)c2ccc3c(c2)N(C[C@@H]2CC[C@H]21)C[C@@]1(CCCc2cc(Cl)ccc21)CO3 (mixture of isomers) [7 (mixture)] ; output its category
Reply | b0

Ask | Input C[C@@H]1[C@@H](C)S(=O)(=O)NC(=O)c2ccc3c(c2)N(C[C@@H]2CC[C@H]2[C@@H](OCCN(C)C)C2=C[C@H]1C2)C[C@@]1(CCCc2c1ccc(Cl)c2F)CO3 ; output its category
Reply | b2

Ask | Input CCO[C@@]1(C(=O)N2CCN3CCOC[C@@H]3C2)C2=C[C@@H](C2)[C@H](C)[C@@H](C)S(=O)(=O)NC(=O)c2ccc3c(c2)N(C[C@@H]2CC[C@H]21)C[C@@]1(CCCc2c1ccc(Cl)c2F)CO3 ; output its category
Reply | b0
